Record set: Ki | Adenosine receptor A3 (Homo sapiens, UniProt P0DMS8) | literature, multiple sources.
- Test Target: Adenosine receptor A3 (Homo sapiens, UniProt P0DMS8)
- Sequence (P0DMS8 whole entry): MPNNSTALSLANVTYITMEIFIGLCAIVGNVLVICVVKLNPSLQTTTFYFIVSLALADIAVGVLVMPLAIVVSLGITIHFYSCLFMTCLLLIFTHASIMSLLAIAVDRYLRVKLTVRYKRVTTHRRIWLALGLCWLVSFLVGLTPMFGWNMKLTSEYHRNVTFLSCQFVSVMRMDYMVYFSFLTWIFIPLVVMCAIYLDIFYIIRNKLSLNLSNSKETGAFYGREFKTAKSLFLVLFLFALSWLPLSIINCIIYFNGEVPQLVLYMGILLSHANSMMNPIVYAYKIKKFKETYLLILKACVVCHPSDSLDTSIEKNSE
Experimental Readout: Ki (nM)

Worked cases, answers included:
> print(dat)
                                smiles.text  experimental.readout  result.units  assay.result
1  COc1ccc(-c2cn3c(=O)n(-c4ccccc4)nc3c(N)n2)c(OC)c1                    Ki            nM           118
2  CCOc1cccc2cc(-c3ccc(OC)c(OC)c3)c(=O)oc12                    Ki            nM         13700

(a) c1nc2nc(Nc3ccc(N4CCOCC4)cc3)[nH]c(NC3CCCCCCC3)c-2n1
(b) CNC(=O)[C@@]12C[C@@H]1[C@@H](n1cnc3c(NC4CCC4)nc(I)nc31)[C@H](O)[C@@H]2O
(c) O=C(Nc1nc(-c2cccs2)nc2cn(-c3ccccc3)nc12)c1ccco1
Kindly order the items shown according to Ki, from the highest value down. Write the labels, ordered according to the request.
a, c, b
(a: 2770 nM, c: 2.34 nM, b: 1.53 nM)
